# Lookup of reported inhibition keyed by entry
- experiment_notes: inhibitors of Sendai virus-induced IRF3 signaling, primary screen, TLR/RLR signaling modifier project, cell-based, Sendai virus stimulus, luciferase, 10K MLSCN set (AID 602276);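 note: firefly luciferase from ISG56 promoter only with Renilla not read in this screen; 0% = Sendai virus plus DMSO and 100% = medium plus DMSO without virus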
- condition_set: HEK293 RL24 IRF3 luciferase reporter, at 10 µM, active compounds read high
Reply numerically in %, unit not repeated.

- compound: "CCCn1c(C)nc2c(c1=O)c1nc3ccccc3nc1n2CCc1ccccc1"
  inhibition (%): 3.36
- compound: "COc1ccccc1-c1nnc(SCC(=O)NC2CCCCC2)o1"
  inhibition (%): -1.61
- compound: "CCOc1cccc(OCCCCn2ccnc2)c1"
  inhibition (%): 9.17
- compound: "CCn1c(C)cc(=S)c2ccccc21"
  inhibition (%): 1.4
- compound: "CC(C)CNC(=O)C1CC(=O)OC12CCCCC2 (stereo unspecified)"
  inhibition (%): 12.4

Next, consider the following compound.
Give reported inhibition value for COc1ccccc1-c1nnc(NC(=O)c2ccc(S(=O)(=O)N(C)Cc3ccccc3)cc2)o1
14.7

---

- experiment_notes: inhibitors of E-selectin induction by TNFa, primary screen, imaging, HUVEC, immunofluorescence, MLSMR starter and 10KST1 sets (AID 487);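 note: signal is fraction of cell area covered by stained E-selectin grains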
- condition_set: HUVEC TNFalpha-induced E-selectin immunofluorescence imaging, at 2 µM; active compounds read high
The source made the active and inactive calls.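 Rule for the calls: active = visually confirmed hit in the image check and inhibition above 20%; inconclusive = visually confirmed hit but inhibition not above 20%; inactive = no visual hit in the image check.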
# inhibition listing for each entry below

- compound: "Cc1[nH]nc(-c2ccc(O)cc2O)c1Oc1ccccc1"
  metric: "inhibition"
  result: "-110% (inactive)"
- compound: "COc1ccccc1C1CC(c2ccc(Cl)cc2)Nc2nc(N)nn21 (stereo unspecified)"
  metric: "inhibition"
  result: "-104% (inactive)"
- compound: "Cc1nc2c(c(N3CCOCC3)n1)OCC(=O)N2"
  metric: "inhibition"
  result: "-63.7% (inactive)"

Determine its reported inhibition: COC(=O)Sc1nc(N2CCOCC2)c2c(c1C#N)CC(C)(C)OC2
-116% (inactive)

# return recorded inhibition for input O=C(CSc1n[nH]c(-c2ccco2)n1)Nc1sc2c(c1C(=O)Nc1ccccc1)CCCC2
-73.5% (inactive)

Indicate its recorded inhibition; the compound in question is CCOC(=O)N1CCN(C(=O)c2cccn3c(=O)c4sccc4nc23)CC1
-5.7% (inactive)

// fetch inhibition given entry O=C1C2ON(c3ccccc3)C(c3cccnc3)C2C(=O)N1Cc1ccccc1 (stereo unspecified)
-48.8% (inactive)

Could you please provide reported inhibition for COc1cc2c(cc1OC)-c1nnc(-c3cccs3)n1C(C)(C)C2 ? Thanks!
-58.9% (inactive)

Give the measured inhibition for CCOC(=O)c1sc(NC(=O)c2noc3c2CCCC3)c(C(=O)OCC)c1C
-47.9% (inactive)

In one line, give reported inhibition of the entry O=C(C1CCCCC1)N1CCCn2c1nc1ccccc12 .
40.4% (inactive)

Quick one: give measured inhibition for Cc1c(O)c(CN2CCCC2)cc2c1oc(=O)c1ccccc12
92.9% (active)

Query inhibition for Cc1nc2ccc(S(=O)(=O)NCC(=O)N3CCc4ccccc4C3)cc2s1
-4.9% (inactive)

Recall and state the measured inhibition for C/C(=N\O)c1c(C)c2ccccc2n1C .
-33% (inactive)

Using known records, supply inhibition for c1ccc(-c2nn3c(Cn4nnc5ccccc54)nnc3s2)nc1
13.7% (inactive)

Annotate the compound CCc1nc2sc3ccccc3c(=O)c2c(=O)n1Cc1ccco1 with its measured inhibition.
4.8% (inactive)

Identify the reported inhibition for the following entry. O=C1c2ccccc2C(Nc2ccc(-c3nc4ccccc4[nH]3)cc2)N1Cc1ccco1 (stereo unspecified)
-26.7% (inactive)

Fill in inhibition for record CCCCSc1nc(N)c(C#N)c(-c2cccs2)c1C#N
-1.9% (inactive)

Write down inhibition measured for item CCc1nc(NCCCN2CCOCC2)c2oc3ccccc3c2n1
-55.2% (inactive)

Supply inhibition value. Item: O=C(CCN1CCc2ccccc2C1)Nc1ccc2c(c1)OCO2
-84.4% (inactive)

Query inhibition for Cc1ccc(-n2ncc3c(NCc4cccnc4)ncnc32)c(C)c1
33.3% (inactive)

Tell me its inhibition given CCc1[nH]nc2c1C1(CCN(C(=O)OCc3ccccc3)CC1)C(C#N)=C(N)O2 as the entry.
-28.9% (inactive)

Quickly give me recorded inhibition for c1ccc(CC2CCN(C(c3cccs3)c3nnnn3C3CCCC3)CC2)cc1 (stereo unspecified)
-31.1% (inactive)

Please give measured inhibition of the following entry: CSc1nc2[nH]c3c(c2c2nnnn12)CCCC3
-139% (inactive)

Give me measured inhibition, please, for this compound: O=C(NCc1ccccc1)C1CCCN1S(=O)(=O)c1cccc2cccnc12 (stereo unspecified)
-42.2% (inactive)

Quick one: give measured inhibition for COn1c(SC2CCCCC2)nc2ccccc2c1=O
-35.7% (inactive)

Give the value of inhibition reported for the following: CCSc1nnc(NC(NC(=O)c2ccco2)(C(F)(F)F)C(F)(F)F)s1
-13.8% (inactive)
